Test target: human IL-17 receptor (IL-17R, PRO1) (Homo sapiens, UniProt Q96F46)
Measurement description: Receptor/ligand interaction screening assay (immunoadhesin)
Assay type: binding
Observable: binding to human IL-17 receptor (IL-17R, PRO1)

Molecule: PRO1122 (IL-17C ligand) (ligand, UniProt Q9P0M4 19-197, looked up) HHDPSLRGHPHSHGTPHCYSAEELPLGQAPPHLLARGAKWGQALPVALVSSLEAASHRGRHERPSATTQCPVLRPEEVLEADTHQRSISPWRYRVDTDEDRYPQKLAFAECLCRGCIDARTGRETAALNSVRLLQSLLVLRRRPCSRDGSGLPTPGAFAFHTEFIHVPVGCTCVLPRSV
Value measured: do not interact
--
Molecule: PRO21175 (IL-17D ligand) (ligand, UniProt Q8TAD2 16-202, looked up) AGAPRAGRRPARPRGCADRPEELLEQLYGRLAAGVLSAFHHTLQLGPREQARNASCPAGGRPADRRFRPPTNLRSVSPWAYRISYDPARYPRYLPEAYCLCRGCLTGLFGEEDVRFRSAPVYMPTVVLRRTPACAGGRSVYTEAYVTIPVGCTCVPEPEKDADSINSSIDKQGAKLLLGPNDAPAGP
Value measured: do not interact
